# Redroot pigweed plant response rating annotations
Test system: pigweed
Procedure details: Test B pre/postemergence pigweed
Type: in vivo, Amaranthus retroflexus
Experimental setup: Preemergence, Rate 125 g/ha; scale of 0 to 10 where 0 is no effect and 10 is complete control

CCCCCn1c(=O)on(C(=O)N(c2ccc(F)cc2F)C(C)C)c1=O: 10
CC(=O)NCn1c(=O)on(C(=O)N(c2ccc(F)cc2F)C(C)C)c1=O: 7
C=C(Cn1c(=O)on(C(=O)N(c2ccccc2)C(C)C)c1=O)C(C)(C)C: 0

Looking up "CC(=O)N(C)CCn1c(=O)on(C(=O)N(c2ccc(F)cc2)C(C)C)c1=O" , I see its Redroot pigweed plant response rating listed as 0

---

Measured Plant response rating, S. Flatsedge, listed per entry.
Test system: smallflower flatsedge
Procedure details: Test B flood test smallflower flatsedge
Format: in vivo, Cyperus difformis
Experimental setup: Rate 250 g/ha, Postemergence (flood test); scale 0 to 10, 0 is no effect, 10 is complete control
In your answer, state the number alone without any accompanying words.

// recorded Plant response rating, S. Flatsedge for CC(C)N(C(=O)n1oc(=O)n(-c2cnn(C)c2)c1=O)c1ccc(F)cc1 [Compound 98] : 8

---

Measured Giant foxtail plant response rating, listed per entry for reference.
Tested on: giant foxtail
Procedure details: Test B pre/postemergence giant foxtail
Format: in vivo, Setaria faberii
Experimental setup: Postemergence, Rate 125 g/ha; scale of 0 to 10 where 0 is no effect and 10 is complete control
Lab note: jot the number down without any unit.

"CC[C@@H](C)n1c(=O)on(C(=O)N(c2ccc(Cl)cc2)C(C)C)c1=O" yielded Giant foxtail plant response rating of 4

// "C=C(C)Cn1c(=O)on(C(=O)N(c2ccc(F)cc2)C(C)C)c1=O" : Giant foxtail plant response rating value = 8

Summary for this compound, "CC(C)N(C(=O)n1oc(=O)n(-c2cnn(C)c2Cl)c1=O)c1ccccc1" : Giant foxtail plant response rating is 2

Recorded result, "CC[C@@H](C)n1c(=O)on(C(=O)N(c2ccc(F)cc2F)C(C)C)c1=O" , Giant foxtail plant response rating: 9

---

In this section we review reported Giant foxtail plant response rating values for a set of molecules.
System: giant foxtail
Procedure details: Test B pre/postemergence giant foxtail
Assay type: in vivo, Setaria faberii
Experimental setup: Preemergence, Rate 500 g/ha; scale 0 to 10, 0 is no effect, 10 is complete control
Would you mind answering with just the numeric figure?

CC(C)N(C(=O)n1oc(=O)n(CC#N)c1=O)c1ccc(Cl)cc1 [Compound 476]: 0

Giant foxtail plant response rating recorded for this molecule, CC(C)N(C(=O)n1oc(=O)n(Cc2cnc(Cl)s2)c1=O)c1ccc(F)cc1 [Compound 482] , is 9

For record C=CC[Si](C)(C)Cn1c(=O)on(C(=O)N(c2ccc(Cl)cc2)C(C)C)c1=O [Compound 414] the listed Giant foxtail plant response rating is 10

Per the records, this molecule ( Cc1nc(C)c(C(C)n2c(=O)on(C(=O)N(c3ccc(F)cc3F)C(C)C)c2=O)s1 (stereo not shown) [Compound 443] ) has Giant foxtail plant response rating equal to 10

---

Tested on: surinam grass
Procedure details: Test B pre/postemergence surinam grass
Assay type: in vivo, Brachiaria decumbens
Experimental setup: Preemergence, Rate 250 g/ha; scale 0 to 10, 0 is no effect, 10 is complete control
Observable: B. signalgrass plant response rating
Write the number on its own, no unit after it.

Worked examples, 3 compounds total:
CC(C)N(C(=O)n1oc(=O)n(C(C)C#N)c1=O)c1ccc(Cl)cc1 (stereo not shown) [Compound 451]: 0
Cc1ccccc1-n1c(=O)on(C(=O)N(c2ccc(S(C)(=O)=O)cc2)C(C)C)c1=O [Compound 203]: 0
CCC(C)N(C(=O)n1oc(=O)n(-c2ccccc2C)c1=O)c1ccc(F)cc1 (stereo not shown) [Compound 239]: 4

For this compound ( CC(C)N(C(=O)n1oc(=O)n(CCCl)c1=O)c1ccc(F)cc1 [Compound 148] ), measured B. signalgrass plant response rating is 7

---

System: bedstraw
Procedure details: Test B pre/postemergence bedstraw
Type: in vivo, Galium aparine
Experimental setup: Preemergence, Rate 250 g/ha; scale of 0 to 10 where 0 is no effect and 10 is complete control
Catalogue of Plant response rating, Bedstraw readings, one per entry.
The answer should be written as a number, with no unit following it.

Below, each entry is followed by its recorded Plant response rating, Bedstraw result.
CCN(C(=O)n1oc(=O)n(Cc2cccs2)c1=O)C1CCCCC1: 0
CCc1noc(C)c1-n1c(=O)on(C(=O)N(c2ccc(F)cc2)C(C)C)c1=O: 0
Cc1ccccc1-n1c(=O)on(C(=O)N(c2cc(F)ccc2F)C(C)C)c1=O: 4

Record summary for "CC(C)N(C(=O)n1oc(=O)n(-c2cnn(C)c2Cl)c1=O)c1ccccc1" : reported Plant response rating, Bedstraw = 0

Lookup result for "Cc1cccc(C)c1-n1c(=O)on(C(=O)N(c2ccc(F)cc2F)C(C)C)c1=O" ; measured Plant response rating, Bedstraw: 1

# compound "CCN(CC)C(=O)n1oc(=O)n(-c2ccc(OC(F)(F)F)cc2)c1=O" ; its Plant response rating, Bedstraw = 0

---

System: wild oat
Procedure details: Test E wild oat
Type: in vivo, Avena fatua
Experimental setup: Preemergence, Rate 500 g/ha; 0 to 100 scale (0 no effect, 100 complete control)
Measured Plant response rating, Wild oat, listed per entry.
Give a plain numeric answer without units written out.

Please review the following examples before continuing.
CC(C)N(C(=O)n1oc(=O)n(C2CCCCCC2)c1=O)c1ccccc1: 70
CC(C)N(C(=O)n1oc(=O)n(C2CCCC2)c1=O)c1ccc(Cl)cc1: 70
CC(C)N(C(=O)n1oc(=O)n(C2CCC2)c1=O)c1ccc(F)cc1: 65

For reference, reported Plant response rating, Wild oat for "CCC(CC)n1c(=O)on(C(=O)N(c2ccc(F)cc2F)C(C)C)c1=O" stands at 85

---

Test system: giant foxtail
Procedure details: Test B pre/postemergence giant foxtail
Type: in vivo, Setaria faberii
Experimental setup: Postemergence, Rate 125 g/ha; scale of 0 to 10 where 0 is no effect and 10 is complete control
Observable: Giant foxtail plant response rating

CC(C)N(C(=O)n1oc(=O)n([C@H](C)c2ccccc2)c1=O)c1ccc(Cl)cc1: 0

The compound listed as "CCOC(=O)Cn1c(=O)on(C(=O)N(c2ccc(F)cc2)C(C)C)c1=O" has a reported Giant foxtail plant response rating of 0

Giant foxtail plant response rating reported for this compound "CCc1noc(C)c1-n1c(=O)on(C(=O)N(c2ccc(F)cc2)C(C)C)c1=O" : 0

Value of Giant foxtail plant response rating reported for the compound CCOP(=O)(OCC)C(C)n1c(=O)on(C(=O)N(c2ccc(F)cc2F)C(C)C)c1=O (centres unmarked) is 2

Entry "COC(=O)N(C)CCn1c(=O)on(C(=O)N(c2ccccc2)C(C)C)c1=O" — recorded Giant foxtail plant response rating = 7

---

Reported B. signalgrass plant response rating is given for each of the following compounds.
Test system: surinam grass
Procedure details: Test B pre/postemergence surinam grass
Format: in vivo, Brachiaria decumbens
Experimental setup: Preemergence, Rate 125 g/ha; scale 0 to 10, 0 is no effect, 10 is complete control
Keep the answer to the number alone.

Some compounds with known B. signalgrass plant response rating results, for comparison:
CC(C)N(C(=O)n1oc(=O)n(CC(=O)C2CC2)c1=O)c1ccc(F)cc1: 7
CC(C)=CCn1c(=O)on(C(=O)N(c2ccccc2)C(C)C)c1=O: 7

The compound "Cc1noc(C)c1Cn1c(=O)on(C(=O)N(c2ccc(Cl)cc2)C(C)C)c1=O" showed B. signalgrass plant response rating equal to 0

Record CC(C)N(C(=O)n1oc(=O)n(C(C)C(=O)c2ccccc2)c1=O)c1ccc(Cl)cc1 (stereo not shown) . Reported B. signalgrass plant response rating: 0

---

System: velvetleaf
Procedure details: Test B pre/postemergence velvetleaf
Type: in vivo, Abutilon theophrasti
Experimental setup: Postemergence, Rate 62 g/ha; scale 0 to 10, 0 is no effect, 10 is complete control
Plant response rating, Velvetleaf reference
Respond with the number and no other words.

Solved entries:
CC[C@@H](C)n1c(=O)on(C(=O)N(c2ccc(F)cc2F)C(C)C)c1=O: 5
CC(C)N(C(=O)n1oc(=O)n(CC(F)F)c1=O)c1ccccc1: 2
C=C(Cn1c(=O)on(C(=O)N(c2ccccc2)C(C)C)c1=O)C(C)(C)C: 0
CC(=O)NCn1c(=O)on(C(=O)N(c2ccc(F)cc2F)C(C)C)c1=O: 0

--- query ---
Per the records, this compound ( "CC(C)N(C(=O)n1oc(=O)n(CNC(=O)c2ccccc2)c1=O)c1ccc(F)cc1F" ) has Plant response rating, Velvetleaf equal to 0

---

Examples of compounds with documented Plant response rating, Soybean follow.
System: soybean
Procedure details: Test B pre/postemergence soybean
Format: in vivo, Glycine max
Experimental setup: Postemergence, Rate 250 g/ha; scale 0 to 10, 0 is no effect, 10 is complete control
Number, no unit, nothing else.

CC(C)N(C(=O)n1oc(=O)n(C)c1=O)c1ccccc1: 5
C=CC[Si](C)(C)Cn1c(=O)on(C(=O)N(c2ccc(Cl)cc2)C(C)C)c1=O: 2
CSCCn1c(=O)on(C(=O)N(c2ccccc2)C(C)C)c1=O: 3
CC(C)N(C(=O)n1oc(=O)n(CCCC(F)(F)F)c1=O)c1ccc(F)cc1: 4

// sample "CC(C)Cn1c(=O)on(C(=O)N(c2ccc(F)cc2F)C(C)C)c1=O" , its Plant response rating, Soybean was 5
